Each entry below carries its recorded EC50.
Target: T1, huNav1.7α+β1-β2-β3 (human, UniProt Q15858 1-1988; Q07699 19-218; O60939 30-215; Q9NY72 23-215)
T1 construct: 5N11S variant; also called huNav1.7-beta1-beta2-beta3; huNav1.7α+Navβ1-Navβ2-Navβ3
Assay: binding FACS, HEK FlpIn cells
Provide only the numeric value, understood in nM.

F0103265B04 (parental)-FLAG-HIS6 (VHH) VHH: EVQLVESGGGLVQPGGSLRLSCAAPSFIFSNNYMEWYRQAPGKQRDWVARITGRGNTNYLDSVKGRFTISRDDAKNTVYLEIDSLKPEDTAVYYCSALWYGGRAWGKGTLVTVSS ... 8.1
F0103262B06 (parental)-FLAG-HIS6 (VHH) VHH: EVQLVESGGGLVQPGGSLRLSCAGSTRTFSTYAMGWFRQAPGREREFVAHINFSGSSTRYADSVKGRFTISRDNAKNMGYLQMNSLKPEDTAVYYCAARWVAGPPRYDYEYWGQGTLVTVSS ... 25
F0103262C02 (parental)-FLAG-HIS6 (VHH, also called F0103262CO2; F103262CO2) VHH: EVQLVESGGGLVQAGGSLTLSCAASGLPFGLYILGWIRRAPGKERDFVAAISRSGRDTVYANSVKGRFTISRDNAKNMVYLRMDNLRPEDTAAYYCAVDSVPRGTPTITESEYAIWGQGTLVTVSS ... 380

Then there is this binder:
# EC50 (binder: F0103362B08 (parental)-FLAG-HIS6 (VHH) VHH: EVQLVESGGGLVQAGGSLRLSCAASVRPFSTSAMGWFRQAPEKEREAVAGILWNGIVTYYADSVKGRFTISRDNAKNEVYLQMNKLKPEDTAVYYCALDRDYGGRSFSAYEYEYWGQGTLVTVSS ) is 42

Data provenance is patent US20240002497A1.
